# Test Details: qHTS assay to identify small molecule antagonists of the estrogen receptor beta (ER-beta) signaling pathway - cell viability counter screen (AID 1259382); note: nearly all actives have a fitted effect of over 55% in size
# Condition Notes: ER-beta-UAS-bla HEK293T viability, CellTiter-Glo luminescence, 16 h; series mostly up to 92.4 µM
Inconclusive results are not listed. The source made the active and inactive calls. Calls come from the whole dose curve; as a rule, active = well fitted cell-killing curve with a large enough effect in the repeat runs; inconclusive = weak or mixed curves; inactive = flat fitted curve, though single readings scatter.
Labels: active, inactive

>>> cat("CN1C(C(=O)Nc2ccccn2)=C(O)c2sccc2S1(=O)=O")
"inactive"
>>> cat("CN1CCCC(CC2c3ccccc3Sc3ccccc32)C1 (configuration not stated)")
"active"
>>> cat("CC(=O)OCCN(CCOC(C)=O)c1ccc(N=Nc2ccc([N+](=O)[O-])cc2C#N)cc1")
"inactive"
>>> cat("CC(CN(C)C)C(C)(O)Cc1ccc(Cl)cc1 (configuration not stated)")
"inactive"
>>> cat("C(=C\\c1ccccc1)/c1ccccc1")
"inactive"
>>> cat("CCCCCCCCCI")
"inactive"
>>> cat("CCOC(=O)[C@H](CCc1ccccc1)N[C@@H](C)C(=O)N(CC(=O)O)C1Cc2ccccc2C1")
"active"
>>> cat("CCOC(=O)c1ccc(C#Cc2ccc3c(c2)C(C)(C)CCS3)nc1")
"inactive"
>>> cat("O=C(O)C[C@H](NC(=O)OCc1ccccc1)C(=O)O")
"inactive"
>>> cat("COc1cc(C(=O)NC2CCN(C)CC2)ccc1Nc1ncc2c(n1)N(C1CCCC1)CC(F)(F)C(=O)N2C")
"active"
>>> cat("NC(=O)c1ccncc1")
"inactive"
>>> cat("CC(C)=CCC1C(=O)N(c2ccccc2)N(c2ccccc2)C1=O")
"inactive"

* * *

# Test Details: qHTS assay to identify small molecule agonists of the peroxisome proliferator-activated receptor delta (PPARd) signaling pathway - cell viability counter screen (AID 743211); note: nearly all actives have a fitted effect of over 55% in size
# Condition Notes: PPARd-bla HEK293H viability, CellTiter-Glo luminescence, 17 h; series mostly up to 62.6 µM
Records with an inconclusive call do not appear. Active and inactive are the calls of the source. Calls come from the whole dose curve; as a rule, active = well fitted cell-killing curve with a large enough effect in the repeat runs; inconclusive = weak or mixed curves; inactive = no such curve, though single readings can be large or run the other way.
Labels: active, inactive

>>> cat("C=CC(=O)[O-].C=CC(=O)[O-].[Zn+2]")
"inactive"
>>> cat("CCOC(=O)/C=C/C(=O)OCC")
"inactive"
>>> cat("COc1cc(C(=O)NC2CCN(C)CC2)ccc1Nc1ncc2c(n1)N(C1CCCC1)CC(F)(F)C(=O)N2C")
"active"
>>> cat("O=C(OCC(O)CO)c1ccccc1Nc1ccnc2cc(Cl)ccc12 (stereo unspecified)")
"active"
>>> cat("C=C(C)C(=O)OCCOCCOC(=O)C(=C)C")
"inactive"
>>> cat("CN1C(=O)OC(C)(C)C1=O")
"inactive"
>>> cat("CC(C)C[C@H](NC(=O)[C@H](CCc1ccccc1)NC(=O)CN1CCOCC1)C(=O)N[C@@H](Cc1ccccc1)C(=O)N[C@@H](CC(C)C)C(=O)[C@@]1(C)CO1")
"active"
>>> cat("CC(C)=CCC/C(C)=C/CC/C(C)=C/CCC(=O)OC/C=C(\\C)CCC=C(C)C")
"inactive"
>>> cat("CC1=C(CC=O)C(C)(C)CCC1")
"inactive"
>>> cat("CCOC(=O)c1ccccc1C(=C1C=C(Br)C(=O)C(Br)=C1)c1cc(Br)c(O)c(Br)c1")
"inactive"
>>> cat("CC1=Nc2ccc3ccccc3c2C1(C)C")
"inactive"

* * *

# Test Details: Caspase-3/7 induction in CHO-K1 cells by small molecules, qHTS cell viability counter screen (AID 1346979); note: nearly all actives have a fitted effect of over 35% in size; note: potency is the fitted concentration of half-maximal effect
# Condition Notes: CellTiter-Fluor fluorescence, 17 h; series mostly up to 92.4 µM
Records with an inconclusive call do not appear. The source made the active and inactive calls. Calls follow the shape of the dose curve; as a rule, active = well fitted cell-killing curve with a large enough effect in the repeat runs; inconclusive = weak or mixed curves, or effect the other way; inactive = no such curve, though single readings can be large or run the other way.
Observed Property: Potency

>>> result("COc1cc(Nc2c(C#N)cnc3cc(OCCCN4CCN(C)CC4)c(OC)cc23)c(Cl)cc1Cl")
"29.8 µM (active)"
>>> result("CC(=O)Nc1cc(S(=O)(=O)O)cc2cc(S(=O)(=O)O)c(N=Nc3ccccc3)c(O)c12")
"27.3 µM (active)"
>>> result("CCC(C)COC(C)=O (stereo unspecified)")
"inactive"
>>> result("CCc1ccccc1")
"inactive"
>>> result("COC(=O)c1nc(Cl)c(Cl)nc1N")
"8.41 µM (active)"
>>> result("OC1(c2ccccc2)CCNCC1")
"inactive"
>>> result("CC(C)C[C@H](NC(=O)[C@H](CCc1ccccc1)NC(=O)CN1CCOCC1)C(=O)N[C@@H](Cc1ccccc1)C(=O)N[C@@H](CC(C)C)C(=O)[C@@]1(C)CO1")
"0.0944 µM (active)"
>>> result("Cc1cscn1")
"inactive"
>>> result("Cc1cc2c(OCC(CNC(C)(C)C)OC(=O)c3ccccc3)cccc2[nH]1 (stereo unspecified)")
"inactive"
>>> result("Brc1cc2ccccc2c2ccccc12")
"inactive"
>>> result("OC(CCN1CCCC1)(c1ccccc1)C1CCCCC1 (stereo unspecified)")
"inactive"
>>> result("COc1ccccc1N1CCN(CCCCNC(=O)c2ccc(-c3ccc(C(C)=O)cc3)cc2)CC1")
"inactive"
>>> result("CCOc1ccccc1O[C@H](c1ccccc1)[C@H]1CNCCO1")
"inactive"
>>> result("Clc1cc(Cl)nc(Cl)n1")
"inactive"
>>> result("COc1cc(C(=O)NCCCCCC(=O)O)cc(OC)c1OC")
"inactive"
>>> result("Cc1ccc(Cl)c(Nc2ccccc2C(=O)O)c1Cl")
"inactive"

* * *

# Test Details: qHTS assay to identify small molecule antagonists of the thyroid receptor (TR) signaling pathway (AID 743065); note: nearly all actives have a fitted effect of over 55% in size
# Condition Notes: GH3.TRE-Luc, T3-stimulated luciferase inhibition, 23.5 h; series mostly up to 70.3 µM
Inconclusive results are not listed. Activity calls are given as the source filed them. Calls come from the whole dose curve; as a rule, active = well fitted inhibition curve with a large enough effect in the repeat runs; inconclusive = weak or mixed curves; inactive = no such curve, though single readings can be large or run the other way.
Labels: class 1 = active, class 0 = inactive

>>> cat("C[C@@]12CCC[C@H]1[C@@H]1CC[C@H]3C[C@@H](O)CC[C@]3(C)[C@H]1CC2")
"class 0"
>>> cat("CC1(C)[C@@H](OC(=O)CCC(=O)O)CC[C@]2(C)[C@H]3C(=O)C=C4[C@@H]5C[C@@](C)(C(=O)O)CC[C@]5(C)CC[C@@]4(C)[C@]3(C)CC[C@@H]12")
"class 0"
>>> cat("O[C@@H]1CO[C@H]2[C@@H]1OC[C@@H]2O")
"class 0"
>>> cat("CCC1CO1 (stereo not given)")
"class 0"
>>> cat("C=CC(=O)OCC1CC2CC1C1CCC(COC(=O)C=C)C21 (stereo not given)")
"class 1"

* * *

# Test Details: qHTS RealTime-Glo MT Cell Viability Assay in HEK293 cells - 24 hour (AID 1224886); note: nearly all actives have a fitted effect of over 50% in size
# Condition Notes: RealTime-Glo luminescence; series mostly up to 76.8 µM
# Description: National Center for Advancing Translational Sciences [NCATS] NIH Chemical Genomics Center [NCGC] U.S. Environmental Protection Agency [EPA] National Institutes of Environmental Health Sciences [NIEHS] National Toxicology Program [NTP] U.S. Food and Drug Administration [FDA] Measure of cell viability is critical in the cell-base assay. Analysis of cell viability is necessary for the characterization of cell responses to cytotoxic drugs and environmental stress. […]
Records with an inconclusive call do not appear. The source made the active and inactive calls. Calls follow the shape of the dose curve; as a rule, active = well fitted cell-killing curve with a large enough effect in the repeat runs; inconclusive = weak or mixed curves, or effect the other way; inactive = flat fitted curve, though single readings scatter.
Labels: label 1 (active), label 0 (inactive)

>>> cat("O=C1c2ccccc2C(=O)N1CCc1noc(-c2ccc(CN3CCCCCC3)s2)n1")
"label 1"
>>> cat("COc1cc(N)c(Cl)cc1C(=O)NC1CCN(CCCOc2ccc(F)cc2)CC1OC (configuration not stated)")
"label 1"
>>> cat("CCC(=O)OC")
"label 0"
>>> cat("Oc1cccc(Nc2ccccc2)c1")
"label 1"
>>> cat("CC(C)=CCC/C(C)=C/CC/C(C)=C/CCC(=O)OC/C=C(\\C)CCC=C(C)C")
"label 0"
>>> cat("NC(=O)c1ccncc1")
"label 0"
>>> cat("Nc1ncnc2c1ncn2[C@H]1CC[C@@H](CO)O1")
"label 0"
>>> cat("CC1(C)S[C@@H]2[C@H](NC(=O)C(c3ccccc3)S(=O)(=O)O)C(=O)N2[C@H]1C(=O)O (some centres not stated)")
"label 0"
>>> cat("CC/C=C1/OC(=O)c2ccccc21")
"label 0"
>>> cat("CC(C)=CC(=O)C=C(C)C")
"label 0"
>>> cat("CCC1CO1 (configuration not stated)")
"label 0"
>>> cat("O=C(OCC(O)CO)c1ccccc1Nc1ccnc2cc(Cl)ccc12 (configuration not stated)")
"label 1"

* * *

# Test Details: Caspase-3/7 induction in HepG2 cells by small molecules, qHTS cell viability counter screen (AID 1346981); note: nearly all actives have a fitted effect of over 30% in size
# Condition Notes: CellTiter-Fluor fluorescence, 17 h; series mostly up to 92.4 µM
Inconclusive results are not listed. Active and inactive are the calls of the source. Calls follow the shape of the dose curve; as a rule, active = well fitted cell-killing curve with a large enough effect in the repeat runs; inconclusive = weak or mixed curves, or effect the other way; inactive = flat fitted curve, though single readings scatter.
Labels: active, inactive

>>> cat("N#CCCN(CCO)CCO")
"inactive"
>>> cat("CCC(C)COC(=O)CC(C)C (stereo not drawn)")
"inactive"
>>> cat("CCCCCCCCOc1ccc(C(=O)O)cc1")
"inactive"
>>> cat("C/C=C/C=C/C=O")
"inactive"
>>> cat("CC(=O)Nc1ccc(C)cc1C")
"inactive"
>>> cat("c1cc(N(CC2CO2)CC2CO2)ccc1Cc1ccc(N(CC2CO2)CC2CO2)cc1 (stereo not drawn)")
"active"
>>> cat("CCOC(=O)c1ccc(OCCN2C[C@H](O)[C@@H](O)[C@H](O)[C@H]2CO)cc1")
"inactive"
>>> cat("CCCCCC#CC(=O)OC")
"inactive"
